# STUDY SYSTEM: recombinant Factor XIII (rFXIIIa) (Homo sapiens, UniProt P00488)
# Construct: made in house
# Sequence (P00488 39-732 limits assumed): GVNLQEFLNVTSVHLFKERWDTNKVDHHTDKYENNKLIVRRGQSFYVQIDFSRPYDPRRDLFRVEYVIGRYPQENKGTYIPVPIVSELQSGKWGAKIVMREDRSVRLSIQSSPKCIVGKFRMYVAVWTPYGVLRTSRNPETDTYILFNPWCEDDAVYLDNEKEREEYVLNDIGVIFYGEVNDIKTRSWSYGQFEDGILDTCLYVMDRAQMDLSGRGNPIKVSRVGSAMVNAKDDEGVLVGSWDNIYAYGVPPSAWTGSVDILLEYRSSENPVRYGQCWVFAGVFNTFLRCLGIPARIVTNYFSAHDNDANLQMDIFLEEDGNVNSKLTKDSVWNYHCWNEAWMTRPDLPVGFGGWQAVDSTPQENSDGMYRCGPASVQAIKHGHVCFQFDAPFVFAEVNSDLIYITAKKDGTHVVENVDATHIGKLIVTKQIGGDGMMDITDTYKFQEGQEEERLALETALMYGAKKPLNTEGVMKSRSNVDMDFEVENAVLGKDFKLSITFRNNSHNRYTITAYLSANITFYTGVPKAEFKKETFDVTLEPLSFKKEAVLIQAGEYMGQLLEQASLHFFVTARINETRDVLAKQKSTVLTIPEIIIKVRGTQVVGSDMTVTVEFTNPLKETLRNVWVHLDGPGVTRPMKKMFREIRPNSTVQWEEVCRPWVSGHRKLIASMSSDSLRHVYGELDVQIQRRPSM
# ASSAY COMMENT: Factor XIII cross-linking assay of test polypeptide substrates (HPLC area % vs time)
# Assay type: biochemical
# EXPERIMENTAL SETUP: initial rate; 2mM substrate; 40 ug/ml rFXIIIa (preactivated); 2.0 U/ml Thrombin; 2.5 mM CaCl2; pH 7.4
No end group written: not given here.
# Hydrolysis d[-NH3]/dt (hydrolysis = deamidation) listing for each entry below

Consider the reported Hydrolysis d[-NH3]/dt (hydrolysis = deamidation) for these sequences:
• GQHHLGAKQ [-- GQ-- HHLG-- AKQ--] = 0.0 uM (monomer)/min
• VPGVGQHHLGGAKVPGVG [VPGVGQ-- HHLGGAKVPGVG] = 1.8 uM (monomer)/min
• VGGQHHLGGAKQVPG [VGGQ-- HHLGGAKQVPG] = 0.0 uM (monomer)/min

Missing value: Hydrolysis d[-NH3]/dt (hydrolysis = deamidation), recombinant Factor XIII (rFXIIIa) (Homo sapiens, UniProt P00488), entry EGQHHLGAKQAG [-- EGQ-- HHL-- GAKQAG--] . Fill in?
5.4 uM (monomer)/min
